Data provenance is ChEMBL document CHEMBL3091369.

Entries below carry reported pKi on 5-hydroxytryptamine receptor 2A (Homo sapiens, UniProt P28223).
Sequence (P28223 whole entry): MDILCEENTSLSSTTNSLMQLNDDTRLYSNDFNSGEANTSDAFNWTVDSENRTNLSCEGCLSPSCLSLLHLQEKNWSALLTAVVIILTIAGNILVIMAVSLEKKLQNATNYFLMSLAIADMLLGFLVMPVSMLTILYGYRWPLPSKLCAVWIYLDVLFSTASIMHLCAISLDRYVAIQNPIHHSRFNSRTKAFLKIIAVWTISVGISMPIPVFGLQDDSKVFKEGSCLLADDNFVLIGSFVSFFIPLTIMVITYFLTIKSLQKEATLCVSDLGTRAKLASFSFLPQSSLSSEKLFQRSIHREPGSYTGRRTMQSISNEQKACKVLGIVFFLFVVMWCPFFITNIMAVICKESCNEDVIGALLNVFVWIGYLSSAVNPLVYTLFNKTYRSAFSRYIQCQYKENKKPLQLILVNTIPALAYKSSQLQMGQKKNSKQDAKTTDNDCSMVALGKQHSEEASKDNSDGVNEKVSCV
pKi: −log10 of the molar value.
MEASUREMENT NAME: pKi

a: NC(N)=NC(=O)c1ccc2c(c1)Cc1ccccc1-2
b: CN1CCC(=C2c3ccccc3CCc3sccc32)CC1 [PIZOTYLINE]
Which of these two has the smaller recorded pKi: a or b ? The response must carry the label of the picked entry. a
(a: 6.00, b: 8.12)

---

test: Aqueous solubility of the compound in second liquid of Japanese pharmacopoeia at pH 6.8 after 20 hrs by liquid chromatographic analysis; type: physicochemical
Let's look at some molecules and their measured solubility at 20 h.

[
  {
    "MOLECULE": "NC(N)=NC(=O)c1ccc2c(c1)Cc1ccccc1-2",
    "MEASUREMENT NAME": "solubility at 20 h",
    "REPORTED VALUE": "< 1 µg/mL"
  }
]

Here is another molecule to look at.
Recorded solubility at 20 h for Cl.NC(N)=NC(=O)c1ccc2c(c1)C(O)c1ccccc1-2 (configuration not stated) , please? < 10 µg/mL

---

molecular target: 5-hydroxytryptamine receptor 2B (Homo sapiens, UniProt P41595); assay: Antagonist activity at human 5-HT2B receptor expressed in HEK293 cells coexpressing EBNA assessed as inhibition of 5-HT-induced IP metabolism incubated for 20 mins prior to substrate addition measured after 20 mins by liquid scintillation counting analysis
Sequence (P41595 whole entry): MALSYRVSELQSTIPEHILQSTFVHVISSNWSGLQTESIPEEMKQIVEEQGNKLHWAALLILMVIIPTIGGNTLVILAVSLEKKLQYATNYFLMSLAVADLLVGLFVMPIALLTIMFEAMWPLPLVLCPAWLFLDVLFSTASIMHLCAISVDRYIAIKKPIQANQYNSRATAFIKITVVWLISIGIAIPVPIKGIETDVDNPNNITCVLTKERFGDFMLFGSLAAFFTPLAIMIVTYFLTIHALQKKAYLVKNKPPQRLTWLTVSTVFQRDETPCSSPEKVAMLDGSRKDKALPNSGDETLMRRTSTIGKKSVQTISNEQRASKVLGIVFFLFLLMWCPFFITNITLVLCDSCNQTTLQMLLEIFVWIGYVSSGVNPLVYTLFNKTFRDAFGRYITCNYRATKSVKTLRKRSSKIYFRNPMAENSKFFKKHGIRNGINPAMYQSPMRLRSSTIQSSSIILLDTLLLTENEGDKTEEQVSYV
MEASUREMENT NAME: IC50 (nM)

1: Cl.NC(N)=NC(=O)c1ccc2c(c1)C(O)c1ccccc1-2 (configuration not stated)
2: NC(N)=NC(=O)c1ccc2c(c1)Cc1ccccc1-2
Select the item with the higher value of IC50 from the options 1 and 2 listed. Answer = label. 2

---

Molecular target: 5-hydroxytryptamine receptor 2C (Homo sapiens, UniProt P28335)
Sequence (P28335 whole entry): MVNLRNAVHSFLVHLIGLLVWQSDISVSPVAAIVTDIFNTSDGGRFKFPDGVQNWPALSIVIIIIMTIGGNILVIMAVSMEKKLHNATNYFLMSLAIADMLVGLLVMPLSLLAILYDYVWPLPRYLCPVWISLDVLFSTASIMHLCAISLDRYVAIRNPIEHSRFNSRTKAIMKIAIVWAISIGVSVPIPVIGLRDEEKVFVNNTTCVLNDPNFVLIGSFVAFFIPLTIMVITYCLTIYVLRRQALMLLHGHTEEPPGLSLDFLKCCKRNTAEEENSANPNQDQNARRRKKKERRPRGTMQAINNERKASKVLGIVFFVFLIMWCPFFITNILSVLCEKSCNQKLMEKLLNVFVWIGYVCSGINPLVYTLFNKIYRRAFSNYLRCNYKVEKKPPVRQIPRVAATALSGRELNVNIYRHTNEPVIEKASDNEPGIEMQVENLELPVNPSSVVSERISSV
MEASUREMENT NAME: Ki

Which Ki is reported for this compound? Cl.NC(N)=NC(=O)c1ccc2c(c1)C(O)c1ccccc1-2 (stereo unspecified) > 1000 nM

---

Reported pKi for target or system 5-hydroxytryptamine receptor 2B (Homo sapiens), by entry.
pKi: −log10 of the molar value.
MEASUREMENT NAME: pKi

[
  {
    "COMPOUND": "NC(N)=NC(=O)c1cccc2c1-c1ccccc1C2",
    "STUDY SYSTEM": "5-hydroxytryptamine receptor 2B (Homo sapiens)",
    "pKi": 7.56
  },
  {
    "COMPOUND": "NC(N)=NC(=O)c1ccc2c(c1)Oc1ccccc1N2",
    "STUDY SYSTEM": "5-hydroxytryptamine receptor 2B (Homo sapiens)",
    "pKi": 8.62
  },
  {
    "COMPOUND": "NC(N)=NC(=O)c1ccc2c(c1)C(=O)c1ccccc1-2",
    "STUDY SYSTEM": "5-hydroxytryptamine receptor 2B (Homo sapiens)",
    "pKi": 9.40
  }
]

P: NC(N)=NC(=O)/C=C/c1ccc2c(c1)C(O)c1ccccc1-2 (stereo not given)
Q: NC(N)=NC(=O)c1ccc2c(c1)Nc1ccccc1O2
Lowest pKi? choose P or Q Answer by quoting the chosen item's label. P
(P: 7.28, Q: 8.44)
